Molecular target: UniProt:O75874
Sequence (O75874 whole entry): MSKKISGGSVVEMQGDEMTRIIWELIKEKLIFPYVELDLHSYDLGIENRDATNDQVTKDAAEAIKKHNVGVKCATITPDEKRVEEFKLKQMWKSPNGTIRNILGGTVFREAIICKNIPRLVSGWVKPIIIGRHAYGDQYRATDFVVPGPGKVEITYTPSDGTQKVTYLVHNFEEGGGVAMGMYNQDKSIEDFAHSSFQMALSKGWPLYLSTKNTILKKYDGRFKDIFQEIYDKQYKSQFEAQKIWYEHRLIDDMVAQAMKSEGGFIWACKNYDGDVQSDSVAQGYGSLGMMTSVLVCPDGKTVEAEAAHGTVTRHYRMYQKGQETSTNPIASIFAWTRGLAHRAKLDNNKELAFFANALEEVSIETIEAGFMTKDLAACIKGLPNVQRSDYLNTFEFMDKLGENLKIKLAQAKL
Assay: IC50 dose-response curve fits (Example 1, assay not described)
Assay type: biochemical
Conditions: curve-fit parameter
Hi! Could you tag entries with Bottom below 4 as Fulfilled, and those at or above as Not fulfilled? Much appreciated.

Worked set:
# COMPOUND, ASSIGNED CLASS
records = [
    ("COc1cccc(NC(=O)c2nn(Cc3ccc(C(F)(F)F)cc3)c3c2CN(C(=O)c2cccs2)CC3(C)C)c1", "Not fulfilled"),
    ("COc1cccc(NC(=O)c2nn(Cc3ccc(C(F)(F)F)cc3)c3c2CN(C(=O)c2ccc[nH]2)CC3(C)C)c1", "Not fulfilled"),
    ("CC1(C)CN(C(=O)c2cn[nH]c2)Cc2c(C(=O)Nc3cccc(F)c3)nn(Cc3ccc(C(F)(F)F)cc3)c21", "Fulfilled"),
    ("COc1ccc(NC(=O)c2nn(Cc3ccc(C(F)(F)F)cc3)c3c2CN(C(=O)c2ccc[nH]2)CC3(C)C)cc1", "Fulfilled"),
    ("COc1ccc(NC(=O)c2nn(Cc3ccc(C(F)(F)F)cc3)c3c2CN(C(=O)c2cccs2)CC3(C)C)cc1", "Not fulfilled"),
]

Below: the item to evaluate.
Just wondering, is Bottom of C[C@@H]1CN(C(=O)c2ccc[nH]2)Cc2c(C(=O)Nc3cccc([C@@H](C)O)c3)nn(Cc3ccc(F)cc3)c21 [FSM-206, reference compound] below 4?
Fulfilled
